Molecular target: human TRPA1 (Homo sapiens)
Construct: The full length of each of human transient receptor potential ankyrin 1 (TRPA1); expressed in transfected cells
Sequence (O75762 whole entry): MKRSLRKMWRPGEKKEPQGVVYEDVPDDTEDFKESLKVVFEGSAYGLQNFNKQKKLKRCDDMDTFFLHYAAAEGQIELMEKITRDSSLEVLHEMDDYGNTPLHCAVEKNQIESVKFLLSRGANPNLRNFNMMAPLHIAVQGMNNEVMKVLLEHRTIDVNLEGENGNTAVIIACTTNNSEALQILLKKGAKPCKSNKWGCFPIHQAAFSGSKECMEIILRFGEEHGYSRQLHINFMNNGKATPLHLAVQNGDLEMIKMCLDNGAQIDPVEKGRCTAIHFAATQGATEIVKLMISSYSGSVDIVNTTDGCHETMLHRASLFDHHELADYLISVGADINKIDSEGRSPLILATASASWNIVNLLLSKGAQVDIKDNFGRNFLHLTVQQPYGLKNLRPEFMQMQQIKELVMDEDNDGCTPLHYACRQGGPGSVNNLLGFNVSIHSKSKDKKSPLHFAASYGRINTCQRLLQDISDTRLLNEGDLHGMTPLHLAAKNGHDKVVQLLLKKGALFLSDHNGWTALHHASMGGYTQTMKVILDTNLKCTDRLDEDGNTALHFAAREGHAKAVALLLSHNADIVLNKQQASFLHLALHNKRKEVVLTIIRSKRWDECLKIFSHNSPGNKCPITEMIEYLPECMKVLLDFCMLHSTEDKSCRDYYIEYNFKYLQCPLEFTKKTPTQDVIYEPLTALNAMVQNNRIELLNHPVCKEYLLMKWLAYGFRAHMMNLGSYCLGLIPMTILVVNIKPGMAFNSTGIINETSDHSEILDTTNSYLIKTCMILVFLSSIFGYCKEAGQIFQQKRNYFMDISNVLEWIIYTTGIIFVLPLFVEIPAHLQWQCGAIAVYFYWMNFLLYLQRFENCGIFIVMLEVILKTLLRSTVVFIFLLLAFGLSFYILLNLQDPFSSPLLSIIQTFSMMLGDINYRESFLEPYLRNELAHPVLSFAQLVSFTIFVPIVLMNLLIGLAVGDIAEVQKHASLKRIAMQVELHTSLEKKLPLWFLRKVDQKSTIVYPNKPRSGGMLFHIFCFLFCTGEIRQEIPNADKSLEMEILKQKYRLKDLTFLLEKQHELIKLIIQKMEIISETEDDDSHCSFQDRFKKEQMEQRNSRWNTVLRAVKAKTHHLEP
Assay: Ca2+ influx assay for TRP channel agonistic activity in T-REx-293 cells
Type: cell-based
Method: […] First, cells were suspended in culture medium with 1 µg/mL of tetracycline and seeded on a poly-D-lysine-coated 96-well plate at a density of 2.5 × 10^4 cells/well overnight. […] Next, the plates were assayed in a FlexStation 3 microplate reader (Molecular Devices). The fluorescence intensity was traced entirely for 80 s, and the fluorescence baseline was measured 20 s before application of 20 µL of the test compound (final concentration = 10 µmol/L). […]
quantity: EC50 (nM)
Numeric answer only, unit nM assumed.

Entry CCCC[C@@H]1OC(=O)C2=C1CCC=C2 [Senkyunolide A] : EC50 on human TRPA1 (Homo sapiens) = 1000

###

test: Pharmacokinetics of ingredients in rat plasma after oral administration of shimotsuto (targeted LC–MS/MS); type: in vivo; conditions: rat, in vivo, po, 1 g/kg
quantity: AUC(0-t) (ng·h/mL)
Give the number; ng·h/mL is assumed, so skip it.

Reported AUC(0-t) for CCC/C=C1\OC(=O)C2=C1CCC=C2 [Ligustilide] was 0.916

Recorded AUC(0-t) (molecule CC12CC3(O)OC(O1)C1(CO)C3CC21OC1OC(CO)C(O)C(O)C1O (centres unmarked) [8-Debenzoylpaeoniflorin] ): 811

Continuing:
Lookup result for C[C@@]12C[C@@]3(O)O[C@@H](O1)[C@]1(COC(=O)c4ccccc4)[C@H]3C[C@@]12O[C@@H]1O[C@H](CO)[C@@H](O)[C@H](O)[C@H]1O [Paeoniflorin] ; measured AUC(0-t): 83.6

Lab book: AUC(0-t) of CCCC[C@@H]1OC(=O)C2=C1CCC=C2 [Senkyunolide A] noted as 8.04

Noted for OC[C@H]1O[C@@H](O[C@@H]2OC=C[C@H]3[C@H](O)[C@@H]4O[C@]4(CO)[C@@H]23)[C@H](O)[C@@H](O)[C@@H]1O [Catalpol] : its AUC(0-t) reads 2030

// CC12CC(O)C3CC1(OC1OC(CO)C(O)C(O)C1O)C3(COC(=O)c1ccccc1)C(=O)O2 (centres unmarked) [Albiflorin] : AUC(0-t) value = 24.2

Entry CCCCC1OC(=O)c2ccccc21 (centres unmarked) [Butylphthalide] — recorded AUC(0-t) = 4.12

Entry COc1cc(/C=C/C(=O)O)ccc1O [Ferulic acid] ; AUC(0-t) = 75

###

assay: Pharmacokinetics of ingredients in rat plasma after oral administration of shimotsuto (targeted LC–MS/MS); assay type: in vivo; conditions: rat, in vivo, po, 1 g/kg
quantity: Cmax (ng/mL)
Reply numerically in ng/mL, unit not repeated.

Worked examples, 3 compounds total:
Item: C[C@@]12C[C@@]3(O)O[C@@H](O1)[C@]1(COC(=O)c4ccccc4)[C@H]3C[C@@]12O[C@@H]1O[C@H](CO)[C@@H](O)[C@H](O)[C@H]1O [Paeoniflorin] | Cmax: 36.3

Cmax measured on CCCC[C@@H]1OC(=O)C2=C1CCC=C2 [Senkyunolide A] = 28.9

# Cmax (compound: CCC/C=C1\OC(=O)C2=C1CCC=C2 [Ligustilide] ) is 2.83

More entries:
The reported Cmax of the compound CC12CC3(O)OC(O1)C1(CO)C3CC21OC1OC(CO)C(O)C(O)C1O (stereo not shown) [8-Debenzoylpaeoniflorin] was 466

###

Target: human TRPV1 (Homo sapiens, UniProt Q8NER1)
Construct: The full length of each of human transient receptor potential ankyrin 1 (TRPA1), transient receptor potential cation channel subfamily V member 1 (TRPV1); expressed in transfected cells
Sequence (Q8NER1 whole entry): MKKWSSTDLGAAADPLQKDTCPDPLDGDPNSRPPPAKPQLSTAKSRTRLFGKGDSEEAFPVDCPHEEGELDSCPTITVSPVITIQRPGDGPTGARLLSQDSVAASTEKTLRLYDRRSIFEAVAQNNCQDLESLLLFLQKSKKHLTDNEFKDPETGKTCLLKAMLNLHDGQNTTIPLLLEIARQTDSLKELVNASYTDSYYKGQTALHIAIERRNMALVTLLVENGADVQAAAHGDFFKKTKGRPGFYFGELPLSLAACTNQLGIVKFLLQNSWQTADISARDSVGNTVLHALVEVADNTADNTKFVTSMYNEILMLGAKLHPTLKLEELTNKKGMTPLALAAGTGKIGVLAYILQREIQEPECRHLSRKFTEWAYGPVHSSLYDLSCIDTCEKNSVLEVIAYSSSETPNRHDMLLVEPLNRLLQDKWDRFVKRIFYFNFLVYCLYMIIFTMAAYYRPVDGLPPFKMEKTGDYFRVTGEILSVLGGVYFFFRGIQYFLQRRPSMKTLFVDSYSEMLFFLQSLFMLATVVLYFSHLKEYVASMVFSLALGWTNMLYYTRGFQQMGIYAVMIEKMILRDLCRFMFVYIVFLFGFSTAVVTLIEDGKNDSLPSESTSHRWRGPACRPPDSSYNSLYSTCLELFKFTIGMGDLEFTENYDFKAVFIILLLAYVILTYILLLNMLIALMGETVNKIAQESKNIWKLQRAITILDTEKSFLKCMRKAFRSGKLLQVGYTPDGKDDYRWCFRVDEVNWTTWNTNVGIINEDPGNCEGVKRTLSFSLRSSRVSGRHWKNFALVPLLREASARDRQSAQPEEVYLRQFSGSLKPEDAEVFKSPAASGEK
Test: Ca2+ influx assay for TRP channel agonistic activity in T-REx-293 cells
Assay type: cell-based
Details: 10 µmol/L test ingredient, positive control 2 µmol/L capsaicin, read-out: % Activation compared to positive control, TRPV1
Description: […] First, cells were suspended in culture medium with 1 µg/mL of tetracycline and seeded on a poly-D-lysine-coated 96-well plate at a density of 2.5 × 10^4 cells/well overnight. […] Next, the plates were assayed in a FlexStation 3 microplate reader (Molecular Devices). The fluorescence intensity was traced entirely for 80 s, and the fluorescence baseline was measured 20 s before application of 20 µL of the test compound (final concentration = 10 µmol/L). […]
activation at 10 µM values for the compounds below.
// units = %; emit number, no label

Check out these entries, answers already filled in.
Observed activation at 10 µM, human TRPV1 (Homo sapiens, UniProt Q8NER1), `C[C@@]12C[C@@]3(O)O[C@@H](O1)[C@]1(COC(=O)c4ccccc4)[C@H]3C[C@@]12O[C@@H]1O[C@H](CO)[C@@H](O)[C@H](O)[C@H]1O` : -1

Form: item CCCCC1OC(=O)c2ccccc21 (stereo not drawn) [Butylphthalide] ; test system human TRPV1 (Homo sapiens, UniProt Q8NER1); activation at 10 µM: -1

For `COc1cc(/C=C/C(=O)O)ccc1O` on human TRPV1 (Homo sapiens, UniProt Q8NER1), measured activation at 10 µM was 0

The compound `OC[C@H]1O[C@@H](O[C@@H]2OC=C[C@H]3[C@H](O)[C@@H]4O[C@]4(CO)[C@@H]23)[C@H](O)[C@@H](O)[C@@H]1O` , tested on human TRPV1 (Homo sapiens, UniProt Q8NER1), showed activation at 10 µM of 0

Considering CC12CC(O)C3CC1(OC1OC(CO)C(O)C(O)C1O)C3(COC(=O)c1ccccc1)C(=O)O2 (stereo not drawn) , its activation at 10 µM with human TRPV1 (Homo sapiens, UniProt Q8NER1) was recorded as 0

---
Kindly note: human TRPV1 (Homo sapiens, UniProt Q8NER1), CC12CC3(O)OC(O1)C1(CO)C3CC21OC1OC(CO)C(O)C(O)C1O (stereo not drawn) , activation at 10 µM value reported: 1
